The values you see were collected from patent US12709733B2.

experiment.notes: Maximum solubility in Cellvento 4Feed depleted in Ile and Leu (turbidity measurement)
Assay type: physicochemical
condition: aqueous with cosolvent or surfactant or cyclodextrin, thermodynamic from solid; 113 g/L feed, pH 7.0+/-0.2, 25° C., soluble = turbidity below 5 NTU
measurement.kind: solubility at 10 min

> print(dat)
                                   compound      measurement.kind  data.value
1                  CC[C@H](C)[C@H](N)C(=O)O  solubility at 10 min     ~105 mM
2  CC(C)C[C@H](NC(=O)C(C)O)C(=O)O (stereo partly shown)  solubility at 10 min     ~600 mM
3                      CC(C)C[C@H](N)C(=O)O  solubility at 10 min      ~90 mM
4  CC[C@H](C)[C@H](NC(=O)C(C)O)C(=O)O (stereo partly shown)  solubility at 10 min    ≥ 951 mM

* * *

The entries below are paired with their reported Solubility 25° C. in g/kg (amino acid).
experiment.notes: Maximum solubility in water at 25° C. (saturated solution, residual mass after infrared drying)
Assay type: physicochemical
condition: water, 25° C., native amino acid
measurement.kind: Solubility 25° C. in g/kg (amino acid) (g/kg)

> print(dat)
   compound.structure.string  unit.symbol  data.value
1   CC[C@H](C)[C@H](N)C(=O)O         g/kg        32.4
2       CC(C)C[C@H](N)C(=O)O         g/kg        22.1
3   N[C@@H](Cc1ccccc1)C(=O)O         g/kg        26.0
4         CSCC[C@H](N)C(=O)O         g/kg        52.9
5        CC(C)[C@H](N)C(=O)O         g/kg        57.8
